The reported numbers originate from ChEMBL document CHEMBL1147248.

// each record: one item and its IC50 for DNA polymerase beta (Homo sapiens)
Unit µM implied. Number only.

Example results:
- Compound: "CC[C@H](CC[C@@H](C)[C@H]1CC[C@H]2[C@@H]3CC=C4C[C@@H](O)CC[C@]4(C)[C@H]3CC[C@]12C)C(C)C [BETA-SITOSTEROL]"
  Tgt: "DNA polymerase beta (Homo sapiens)"
  IC50 / µM: 26.3
- Compound: "CC[C@H](/C=C/[C@@H](C)[C@H]1CC[C@H]2[C@@H]3CC=C4C[C@@H](O)CC[C@]4(C)[C@H]3CC[C@]12C)C(C)C [STIGMASTEROL]"
  Tgt: "DNA polymerase beta (Homo sapiens)"
  IC50 / µM: 43.4

Note: attention shifts to another entry.
Considering CC1(C)CC[C@]2(C(=O)O)CC[C@]3(C)C(=CC[C@@H]4[C@@]5(C)CC[C@H](O)C(C)(C)[C@@H]5CC[C@]43C)[C@@H]2C1 [OLEANOLIC_ACID] , its IC50 with DNA polymerase beta (Homo sapiens) was recorded as 8.8
